B1: HDV Ribozyme (parent)
chain: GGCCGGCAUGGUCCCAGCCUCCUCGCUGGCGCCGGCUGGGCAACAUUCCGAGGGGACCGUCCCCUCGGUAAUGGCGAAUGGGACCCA

# Variants of: B1
# Protocol text: self-cleavage, relative activity (ratio to wild type); higher = more cleavage; co-transcriptional
Please use the following self-cleavage ranges when assigning a class: 0 = under 0.2, 1 = from 0.2 up to 0.5, 2 = 0.5 and over

Some solved entries appear below for comparison.
• GGCCGGCAUGGUCCCAGCUUCCUCGCUGGCGCCGACUGGGCAACAUUCCGAGGGGACCGUCCCCUCGGUAAUGGCGAAUGGGACCCA [C19U G35A] = 1
• GGCCGCCAUGGUCCCAGCCUCCUCGCUGGCGCCGGCUGGGCAACAUUCCGAGGGGACCGUCCCCUCGGCAAUGGCGAAUGGGACCCA [G6C U69C] = 0
• GGCCGGCAUGGUCCCAGACUCCUCGCUGGCGCCGGCUGGGCAACAUUCCGAGGGGACCGUCCCCUCGGUAAUGGCGAAUGGUACCCA [C18A G82U] = 0
• GGCCGGCAUGGUCCCAGCCUCCUCGCUGGCGACGGCUGGGCAACAUUCCGAGGGGACCGUCCCCUCGGAAAUGGCGAAUGGGACCCA [C32A U69A] = 0
• GGCCGGCAUGGUCCCAGCCUCCUCGCUGGCGCCGGCUGGGCAACAUUCCGAGGGGACCGUCCCCUCGGUAAUGGCGAAUCGAACCCA [G80C G82A] = 0
• GGCCGGCAUGGUCCCAGCCUCCUCGCGGGCGCCGGCUGGGCAACAUUCCGAGGGGACCUUCCCCUCGGUAAUGGCGAAUGGGACCCA [U27G G59U] = 2
• GGUCGGCAUGGUCCCAGCCUCCUCGGUGGCGCCGGCUGGGCAACAUUCCGAGGGGACCGUCCCCUCGGUAAUGGCGAAUGGGACCCA [C3U C26G] = 2
• GGCCGGCAUGGUCCCAGCCUCUUCGCUGGCGCCGGCUGGGCAACAUUCCGAGGGGACCGUCCCCUAGGUAAUGGCGAAUGGGACCCA [C22U C66A] = 2
• GGCCGGCAUGGUCCCAGCCUCCUCGCUGGCGCCGGCUGGGCAACUUUCCGAGGGGACCGUCCCCUCGGUAAUGGCGGAUGGGACCCA [A45U A77G] = 2
• GGCCGGCAUGGUCCCAGCCUCCUCGCUGGCGCCGGCUGGGCAACAUUCCGAGGGGACCGUCCCCUCGGUAAUGGCGAAUGGGACACU [C85A A87U] = 2

# bin label for GGCCGGCGUGGUCCCAGCCUCCUCGCUGGCGCCGGCUGGGCAACAUUCUGAGGGGACCGUCCCCUCGGUAAUGGCGAAUGGGACCCA [A8G C49U] 2

# bin label for GGCCGGCAUGGUCCCAGCCUCCUCGCUGGCGCCGGCUGGGCAACAUUCCGAGGGGACCGUCCCCUCGGUAAUGGCGAAAAGGACCCA [U79A G80A] 1

# bin label for GGCCGGCAUGGUCCCAGCCCCCUCGCUGGCGCCGGCUGGGCAACAUUCCGAGGGGACCGUGCCCUCGGUAAUGGCGAAUGGGACCCA [U20C C61G] 0

# bin label for GGCCGUCAUGGUCCCAGCCUCCUCGCUGGCGCCGGCUGGUCAACAUUCCGAGGGGACCGUCCCCUCGGUAAUGGCGAAUGGGACCCA [G6U G40U] 2

# bin label for GGCCGGCAUGGUCCCAGCCCCCUCGCUGGCGCCGGCUGGGCACCAUUCCGAGGGGACCGUCCCCUCGGUAAUGGCGAAUGGGACCCA [U20C A43C] 0

Origin of measurements: the RNAGym collection of RNA variant scans (doi:10.7554/elife.80360)
